pKi: −log10 of the molar value.
# literature pull: 5-hydroxytryptamine receptor 1D (Homo sapiens) pKi
# Sequence (P28221 whole entry): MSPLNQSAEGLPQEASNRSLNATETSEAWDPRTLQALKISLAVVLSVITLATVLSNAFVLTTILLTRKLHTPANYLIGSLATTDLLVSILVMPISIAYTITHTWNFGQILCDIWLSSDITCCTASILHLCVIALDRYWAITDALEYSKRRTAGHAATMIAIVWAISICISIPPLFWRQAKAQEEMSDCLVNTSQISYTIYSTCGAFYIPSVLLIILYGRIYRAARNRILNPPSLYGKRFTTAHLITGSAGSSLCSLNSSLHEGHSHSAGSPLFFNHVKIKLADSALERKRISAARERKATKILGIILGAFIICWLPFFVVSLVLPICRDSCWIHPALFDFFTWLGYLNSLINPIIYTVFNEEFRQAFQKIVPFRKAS
RECORDED_METRIC: pKi

The cases that follow already have their pKi on record.
[
  {
    "COMPOUND_STRUCTURE": "COc1ccccc1N1CCN(CCCCC(=O)NCc2ccccc2-c2ccccc2Cl)CC1",
    "TESTED_ON": "5-hydroxytryptamine receptor 1D (Homo sapiens)",
    "pKi": 6.38
  },
  {
    "COMPOUND_STRUCTURE": "Cc1ccc2c(OCCN3CCC(Cc4cccc(C5CCNCC5)c4)CC3)cccc2n1",
    "TESTED_ON": "5-hydroxytryptamine receptor 1D (Homo sapiens)",
    "pKi": 8.90
  }
]

A = Cc1ccc2c(OCCN3CCC(Cc4ccc5c(c4F)NC(=O)CO5)CC3)cccc2n1
B = Cn1c(=O)cnn(CCCCN2CCN(c3ccccc3OCCF)CC2)c1=O
Ask | Quick check, higher pKi between A and B ? Write down the label of the entry you select.
Reply | A
(A: 9.10, B: 6.63)
